Every entry's value here was drawn from the Immune Epitope Database (IEDB).

- measured_target: HLA-A*68:01
- method_description: IEDB peptide-MHC binding, purified MHC/competitive/radioactivity; filed as Kd, often an IC50 or EC50 that approximates it; bounds were set here for any values at or beyond the usual limits of such assays
- experimental_conditions: source organism: Dengue virus 2 Jamaica/1409/1983
pKd: −log10 of the molar value.
measured_endpoint: pKd

# sequence_text, measured_target, quantitative_readout
measured = [
    ("TAIFLTTLSR", "HLA-A*68:01", 8.55),
    ("EFKEFAAGR", "HLA-A*68:01", 6.23),
]

---

- measured_target: HLA-B*08:02
- method_description: IEDB peptide-MHC binding, purified MHC/direct/fluorescence; filed as Kd, often an IC50 or EC50 that approximates it; bounds were set here for any values at or beyond the usual limits of such assays
- experimental_conditions: source organism: West Nile virus strain PTRoxo
pKd: −log10 of the molar value.

# sequence_text, measured_target, pKd
measured = [
    ("GMSWITQGL", "HLA-B*08:02", "≤ 4.70"),
]
